- Test system: Contig2088_s_at, Bowman-Birk type trypsin inhibitor
- Experiment notes: GEP, barley DNA chip, probe set 2.1
- Assay type: in vivo
- Set-up: dose or concentration left out as unconfirmed
- Cond: Hordeum vulgare, topical; barley leaves 6 h after spray application; rates of Table 1 (S7 500); median induction factor vs control; read-out: Expression value, 2.1 Contig2088_s_at
Property name: fold induction

Compound: CCCCCC(C)OC(=O)COc1ccc(Cl)c2cccnc12 (stereo not shown)
Tested target: Contig2088_s_at, Bowman-Birk type trypsin inhibitor
fold induction: 1

Query string: What does the data say about its fold induction? Entry: COC(=O)C1=NN(c2ccc(Cl)cc2Cl)C(C)(C(=O)OC)C1 (stereo not shown)
Result string: 1

Where these numbers come from: patent US20070265164A1
